System: Enterococcus faecium ATCC 700221 (VRE)
Assay Method Text: Broth microdilution MIC, E. faecium ATCC 700221 (VRE)
Format: cell-based
Assay Setup: Enterococcus faecium; broth microdilution, 37° C., 20 hours; read-out: MIC E. faecium ATCC 700221 (VRE)

# Chemical Smiles, MIC
rows = [
    ("COCCn1nc(F)c2nc(NCc3ccc(F)c(F)c3)[nH]c(=O)c21", "4 µg/mL"),
    ("O=C(c1cccnc1)N1CCC(n2nc(Cl)c3nc(NCc4ccc(Cl)c(Cl)c4)[nH]c(=O)c32)CC1", "1 µg/mL"),
    ("Cl.O=C(c1cn[nH]n1)N1CCC(n2ncc3nc(NCc4ccc(Cl)c(Cl)c4)[nH]c(=O)c32)CC1", "2 µg/mL"),
    ("CS(=O)(=O)CCOCCn1ncc2nc(NCc3ccc(Cl)c(Cl)c3)[nH]c(=O)c21", "2 µg/mL"),
]

###

Test system: Enterococcus faecium ATCC 700221 (VRE)
Assay Method Text: Broth microdilution MIC, E. faecium ATCC 700221 (VRE)
Type: cell-based
Assay Setup: Enterococcus faecium; broth microdilution, 37° C., 20 hours; read-out: MIC E. faecium ATCC 700221 (VRE)
Entries whose MIC is below 8 µg/mL take Y; entries at or above 8 µg/mL take N.

# Compound, Class
measured = [
    ("O=C(c1nccs1)N1CCC(n2ncc3nc(NCc4ccc(Cl)c(Cl)c4)[nH]c(=O)c32)CC1 [Compound 254]", "Y"),
    ("CC(C)(C)OC(=O)N1CCC(CN2CCC(n3ncc4nc(NCc5ccc(Cl)c(Cl)c5)[nH]c(=O)c43)CC2)CC1 [Compound 248]", "Y"),
    ("O=c1[nH]c(NCc2ccc(Cl)c(Cl)c2)nc2c(-c3ncco3)nn(CCOCCO)c12 [Compound 50]", "N"),
    ("CCOC(=O)C1(Cn2ncc3nc(NCc4ccc(Cl)c(Cl)c4)[nH]c(=O)c32)CCNCC1.Cl [Compound 194]", "N"),
    ("COC(=O)C(C)n1ncc2nc(NCc3ccc(Cl)c(Cl)c3)[nH]c(=O)c21 (stereo not shown) [Compound 227]", "Y"),
    ("Cl.O=c1[nH]c(NCc2ccc(Cl)c(Cl)c2)nc2cnn(CCOCc3nn[nH]n3)c12 [Compound 282]", "N"),
    ("CNCCn1ncc2nc(NCc3ccc(Cl)c(Cl)c3)[nH]c(=O)c21 [Compound 61]", "N"),
    ("CN(CCn1ncc2nc(NCc3ccc(Cl)c(Cl)c3)[nH]c(=O)c21)C(=O)c1cc(O)nnc1Cl [Compound 87]", "N"),
    ("Cl.O=C([C@@H]1C[C@@H](O)CN1)N1CCC(n2ncc3nc(NCc4ccc(Cl)c(Cl)c4)[nH]c(=O)c32)CC1 [Compound 274]", "N"),
    ("Cl.O=C(c1nnc[nH]1)N1CCC(n2ncc3nc(NCc4ccc(Cl)c(Cl)c4)[nH]c(=O)c32)CC1 [Compound 265]", "Y"),
    ("Cl.O=c1[nH]c(NCc2ccc(Cl)c(Cl)c2)nc2cnn(CC3CCCNC3)c12 (stereo not shown) [Compound 154]", "N"),
    ("O=c1[nH]c(NCc2ccc(Cl)c(Cl)c2)nc2cn(Cc3ccccc3)nc12 [Compound 129]", "N"),
    ("Cn1ncc2nc(NCc3ncc[nH]3)[nH]c(=O)c21 [Compound 22]", "N"),
]

###

Reported MIC values for a set of compounds
Test system: Enterococcus faecium ATCC 700221 (VRE)
Assay Method Text: Broth microdilution MIC, E. faecium ATCC 700221 (VRE)
Format: cell-based
Assay Setup: Enterococcus faecium; broth microdilution, 37° C., 20 hours; read-out: MIC E. faecium ATCC 700221 (VRE)
Readout Name: MIC (µg/mL)

# Chemical Smiles, Measure Unit, Qualifier Operator, Numeric Value
rows = [
    ("Cn1ncc2nc(NCc3ccccc3Cl)[nH]c(=O)c21", "µg/mL", ">", 64),
    ("CP(C)(=O)CCCCn1nc(F)c2nc(NCc3ccc(F)c(F)c3)[nH]c(=O)c21", "µg/mL", "=", 32),
    ("COCCn1nc(Cl)c2nc(NCc3ccc(Cl)c(Cl)c3)[nH]c(=O)c21", "µg/mL", "=", 0.5),
    ("CN(C)C1CCN(CCn2ncc3nc(NCc4ccc(Cl)c(Cl)c4)[nH]c(=O)c32)CC1.Cl.Cl", "µg/mL", "=", 16),
    ("COCC(COC)n1ncc2nc(NCc3ccc(Cl)c(Cl)c3)[nH]c(=O)c21", "µg/mL", "=", 32),
    ("Cn1ncc2nc(NCc3ccc(Cl)cc3Cl)[nH]c(=O)c21", "µg/mL", "=", 16),
    ("CC(C)(CCCn1ncc2nc(NCc3ccc(Cl)c(Cl)c3)[nH]c(=O)c21)C(=O)O", "µg/mL", "=", 8),
    ("Cn1ncc2nc(NCc3ccc4[nH]ccc4c3)[nH]c(=O)c21", "µg/mL", ">", 64),
]

###

System: Enterococcus faecalis ATCC 29212
Assay Method Text: Broth microdilution MIC, E. faecalis ATCC 29212
Format: cell-based
Assay Setup: ATCC29212, broth microdilution, 37° C., 20 hours, read-out: MIC E. faecalis ATCC 29212

# Chemical Smiles, Assayed System, Qualifier Operator, MIC, µg/mL
data = [
    ("CP(C)(=O)CCCCn1ncc2nc(NCc3ccc(Cl)c(Cl)c3)[nH]c(=O)c21", "Enterococcus faecalis ATCC 29212", "=", 64),
    ("Cn1ncc2nc(NCc3ccc4[nH]ncc4c3)[nH]c(=O)c21", "Enterococcus faecalis ATCC 29212", ">", 64),
    ("Cl.O=C([C@@H]1C[C@@H](O)CN1)N1CCC(n2ncc3nc(NCc4ccc(Cl)c(Cl)c4)[nH]c(=O)c32)CC1", "Enterococcus faecalis ATCC 29212", "=", 64),
    ("O=C(CO)Cn1ncc2nc(NCc3ccc(Cl)c(Cl)c3)[nH]c(=O)c21", "Enterococcus faecalis ATCC 29212", "=", 16),
    ("CN1CCC(O)(Cn2ncc3nc(NCc4ccc(Cl)c(Cl)c4)[nH]c(=O)c32)CC1.Cl", "Enterococcus faecalis ATCC 29212", "=", 32),
    ("Cn1ncc2nc(NCc3cccnn3)[nH]c(=O)c21", "Enterococcus faecalis ATCC 29212", ">", 64),
    ("Cn1ncc2nc(NCc3cncs3)[nH]c(=O)c21", "Enterococcus faecalis ATCC 29212", ">", 64),
    ("Cl.O=C(c1cc[nH]n1)N1CCC(n2ncc3nc(NCc4ccc(Cl)c(Cl)c4)[nH]c(=O)c32)CC1", "Enterococcus faecalis ATCC 29212", "=", 4),
]

###

System: Streptococcus pneumoniae ATCC 49619
Assay Method Text: Broth microdilution MIC, S. pneumoniae ATCC 49619
Format: cell-based
Assay Setup: ATCC49619, broth microdilution, 37° C., 20 hours, read-out: MIC S. pneumoniae ATCC 49619
Listed below: MIC values for each entry.

# Chemical Smiles, Measure Unit, Qualifier Operator, MIC
measured = [
    ("O=c1[nH]c(NCc2ccc(Cl)c(Cl)c2)nc2cnn(CCOCCOCCO)c12", "µg/mL", "=", 16),
    ("Cl.Cl.O=c1[nH]c(NCc2ccc(Cl)c(Cl)c2)nc2cnn(C3CCN(Cc4ccncc4)CC3)c12", "µg/mL", "=", 4),
    ("Cn1ncc2nc(NCc3cncs3)[nH]c(=O)c21", "µg/mL", ">", 64),
    ("O=c1[nH]c(NCc2ccc(Cl)c(Cl)c2)nc2cnn(Cc3ccc(O)c(O)c3)c12", "µg/mL", "=", 64),
    ("O=c1[nH]c(NCc2ccc(Cl)c(Cl)c2)nc2cnn(Cc3ncco3)c12", "µg/mL", "=", 8),
    ("O=c1[nH]c(NCc2ccc(Cl)c(Cl)c2)nc2cnn(-c3ncccn3)c12", "µg/mL", ">", 64),
    ("O=c1[nH]c(NCc2ccc(Cl)c(Cl)c2)nc2c(Cl)n[nH]c12", "µg/mL", "=", 8),
    ("Cn1ncc2nc(NCc3ccc(Cl)c(Cl)c3)[nH]c(=O)c21", "µg/mL", "=", 4),
    ("Cn1ncc2nc(NCc3ccncc3)[nH]c(=O)c21", "µg/mL", ">", 64),
]

###

Tested on: Enterococcus faecium ATCC 700221 (VRE)
Assay Method Text: Broth microdilution MIC, E. faecium ATCC 700221 (VRE)
Type: cell-based
Assay Setup: Enterococcus faecium; broth microdilution, 37° C., 20 hours; read-out: MIC E. faecium ATCC 700221 (VRE)
Readout Name: log10 MIC (log10 of the value in µg/mL)

# Molecule, log10 MIC
rows = [
    ("CN1CC(Cn2ncc3nc(NCc4ccc(Cl)c(Cl)c4)[nH]c(=O)c32)CC1=O (stereo not shown)", 0.30),
    ("Cl.O=C(c1cnc[nH]1)N1CCC(n2ncc3nc(NCc4ccc(Cl)c(Cl)c4)[nH]c(=O)c32)CC1", 0.60),
    ("O=c1[nH]c(NCc2ccc(Cl)c(Cl)c2)nc2c(Br)nn(CCOCCO)c12", 0.30),
    ("Cn1nc(F)c2nc(NCc3ccc(Cl)c(Cl)c3)[nH]c(=O)c21", -0.30),
    ("O=c1[nH]c(NCc2ccc(Cl)c(Cl)c2)nc2c(Cl)n[nH]c12", 0.60),
    ("Cn1ncc2nc(NCc3ccc(F)c(Cl)c3)[nH]c(=O)c21", 0.90),
    ("COCc1nnc(CCn2ncc3nc(NCc4ccc(Cl)c(Cl)c4)[nH]c(=O)c32)o1.Cl", 0.60),
    ("O=c1[nH]c(NCc2ccc(Cl)c(Cl)c2)nc2cnn(CCS(=O)(=O)CCO)c12", 1.20),
    ("CC(CCCn1ncc2nc(NCc3ccc(Cl)c(Cl)c3)[nH]c(=O)c21)C(=O)O (stereo not shown)", 1.20),
    ("CCCCOCCOCCOCCn1ncc2nc(NCc3ccc(Cl)c(Cl)c3)[nH]c(=O)c21", 0.60),
    ("Cl.O=C(c1ncc[nH]1)N1CCC(n2ncc3nc(NCc4ccc(Cl)c(Cl)c4)[nH]c(=O)c32)CC1", 0.30),
    ("Cl.O=c1[nH]c(NCc2ccc(Cl)c(Cl)c2)nc2cnn(CC3C(O)C4CCN3CC4)c12 (stereo not shown)", 1.81),
]
